method: Immunosuppressive activity in Balb/c mouse T cells assessed as inhibition of ConA-induced cell proliferation at 100 uM after 48 hrs by MTT assay relative to control
Type: functional
For each record, write down the corresponding inhibition at 100 µM.
One number for each entry, in %.

Dear colleague, could you please provide inhibition at 100 µM for the compounds listed below?
1. CC(=O)Oc1cc(C)c2c(c1C)C[C@H]([C@@H](C)C(=O)OCc1cn(-c3cc(I)ccc3C)nn1)CC2
2. CC(=O)Oc1cc(C)c2c(c1C)C[C@H]([C@@H](C)C(=O)OCc1cn(-c3ccccc3Cl)nn1)CC2
3. CC(=O)Oc1cc(C)c2c(c1C)C[C@H]([C@@H](C)C(=O)OCc1cn(-c3ccc(O)cc3)nn1)CC2
4. COc1cc(-n2cc(COC(=O)[C@H](C)[C@@H]3CCc4c(C)cc(OC(C)=O)c(C)c4C3)nn2)cc(OC)c1OC

1: 26.5; 2: 30.6; 3: 17.6; 4: 83.3

====

Species on record: Mus musculus
method: Cytotoxicity against Balb/c mouse B cells assessed as decrease in cell viability at 100 uM after 48 hrs by MTT assay
Assay type: toxicity, cell-based
quantity: Activity

CC(=O)Oc1cc(C)c2c(c1C)C[C@H]([C@@H](C)C(=O)OCc1cn(-c3ccccc3Cl)nn1)CC2: Toxic
COc1ccccc1-n1cc(COC(=O)[C@H](C)[C@@H]2CCc3c(C)cc(OC(C)=O)c(C)c3C2)nn1: Non-Toxic
CC(=O)Oc1cc(C)c2c(c1C)C[C@H]([C@@H](C)C(=O)OCc1cn(Cc3ccccc3)nn1)CC2: Toxic
CC(=O)Oc1cc(C)c2c(c1C)C[C@H]([C@@H](C)C(=O)OCc1cn(-c3cccc([N+](=O)[O-])c3)nn1)CC2: Non-Toxic

====

Organism: Mus musculus
method: Cytotoxicity against Balb/c mouse B cells assessed as decrease in cell viability at 1 uM after 48 hrs by MTT assay
Assay type: toxicity, cell-based
quantity: Activity

Here are 6 compounds together with their reported answers.
CC(=O)Oc1cc(C)c2c(c1C)C[C@H]([C@@H](C)C(=O)OCc1cn(-c3ccc(Cl)c(Cl)c3)nn1)CC2: Non-Toxic
COc1ccccc1-n1cc(COC(=O)[C@H](C)[C@@H]2CCc3c(C)cc(OC(C)=O)c(C)c3C2)nn1: Toxic
CC(=O)Oc1cc(C)c2c(c1C)C[C@H]([C@@H](C)C(=O)OCc1cn(-c3ccc(Cl)cc3)nn1)CC2: Toxic
CC(=O)Oc1cc(C)c2c(c1C)C[C@H]([C@@H](C)C(=O)OCc1cn(-c3cccc(C#N)c3)nn1)CC2: Toxic
CC1=C2[C@H]3OC(=O)[C@@H](C)[C@@H]3CC[C@@]2(C)C=CC1=O [SANTONIN]: Non-Toxic
CC(=O)Oc1cc(C)c2c(c1C)C[C@H]([C@@H](C)C(=O)OCc1cn(-c3ccc(Cl)nc3)nn1)CC2: Non-Toxic

For each entry beneath this line, provide reported Activity.
1. CC(=O)Oc1cc(C)c2c(c1C)C[C@H]([C@@H](C)C(=O)OCc1cn(-c3ccc(O)cc3C)nn1)CC2
2. CC(=O)Oc1cc(C)c2c(c1C)C[C@H]([C@@H](C)C(=O)OCc1cn(-c3ccccc3Cl)nn1)CC2
3. CC(=O)Oc1cc(C)c2c(c1C)[C@@H]1OC(=O)[C@@H](C)[C@@H]1CC2
4. CC(=O)Oc1cc(C)c2c(c1C)C[C@H]([C@@H](C)C(=O)OCc1cn(-c3ccc(CC#N)cc3)nn1)CC2
5. CC(=O)Oc1cc(C)c2c(c1C)C[C@H]([C@@H](C)C(=O)OCc1cn(Cc3ccccc3)nn1)CC2
6. CC(=O)Oc1cc(C)c2c(c1C)C[C@H]([C@@H](C)C(=O)OCc1cn(-c3ccc(O)cc3)nn1)CC2

["Non-Toxic", "Toxic", "Toxic", "Toxic", "Non-Toxic", "Non-Toxic"]

Dear colleague, could you send me Activity for each of the items below? Thanks.
1. CC(=O)Oc1cc(C)c2c(c1C)C[C@H]([C@@H](C)C(=O)OCc1cn(-c3ccccc3CO)nn1)CC2
2. CC(=O)Nc1ccc(-n2cc(COC(=O)[C@H](C)[C@@H]3CCc4c(C)cc(OC(C)=O)c(C)c4C3)nn2)cc1
3. CC(=O)Oc1cc(C)c2c(c1C)C[C@H]([C@@H](C)C(=O)OCc1cn(Cc3ccc(Br)cc3)nn1)CC2
4. C#CCOC(=O)[C@H](C)[C@@H]1CCc2c(C)cc(OC(C)=O)c(C)c2C1
5. CC(=O)Oc1cc(C)c2c(c1C)C[C@H]([C@@H](C)C(=O)OCc1cn(-c3ccccc3F)nn1)CC2

["Toxic", "Toxic", "Non-Toxic", "Non-Toxic", "Non-Toxic"]

Give Activity for each listed item.
1. CC(=O)Oc1cc(C)c2c(c1C)C[C@H]([C@@H](C)C(=O)OCc1cn(-c3ccc(NC(=O)c4ccccc4)cc3)nn1)CC2
2. CC(=O)Oc1cc(C)c2c(c1C)C[C@H]([C@@H](C)C(=O)OCc1cn(-c3ccc(C(=O)c4ccccc4)cc3)nn1)CC2
3. CC(=O)Oc1cc(C)c2c(c1C)C[C@H]([C@@H](C)C(=O)OCc1cn(-c3cccc([N+](=O)[O-])c3)nn1)CC2
4. CCCCn1cc(COC(=O)[C@H](C)[C@@H]2CCc3c(C)cc(OC(C)=O)c(C)c3C2)nn1
5. CC(=O)Oc1cc(C)c2c(c1C)C[C@H]([C@@H](C)C(=O)OCc1cn(-c3cc(I)ccc3C)nn1)CC2
6. CC(=O)Oc1cc(C)c2c(c1C)C[C@H]([C@@H](C)C(=O)OCc1cn(-c3ccc(CO)cc3)nn1)CC2

["Non-Toxic", "Non-Toxic", "Toxic", "Non-Toxic", "Non-Toxic", "Toxic"]

Below are 7 compounds. Give each one its Activity.
1. CC(=O)Oc1cc(C)c2c(c1C)C[C@H]([C@@H](C)C(=O)OCc1cn(-c3cccnc3Cl)nn1)CC2
2. CC(=O)Oc1cc(C)c2c(c1C)C[C@H]([C@@H](C)C(=O)O)CC2
3. CCCCCn1cc(COC(=O)[C@H](C)[C@@H]2CCc3c(C)cc(OC(C)=O)c(C)c3C2)nn1
4. CC(=O)Oc1cc(C)c2c(c1C)C[C@H]([C@@H](C)C(=O)OCc1cn(-c3ccc4c(c3)OCO4)nn1)CC2
5. CC(=O)Oc1cc(C)c2c(c1C)C[C@H]([C@@H](C)C(=O)OCc1cn(-c3ccc(C#N)cc3)nn1)CC2
6. CC(=O)Oc1cc(C)c2c(c1C)C[C@H]([C@@H](C)C(=O)OCc1cn(-c3ccccc3C#N)nn1)CC2
7. COc1ccc(-n2cc(COC(=O)[C@H](C)[C@@H]3CCc4c(C)cc(OC(C)=O)c(C)c4C3)nn2)cc1

["Toxic", "Toxic", "Toxic", "Non-Toxic", "Toxic", "Toxic", "Toxic"]

Record COc1cc(-n2cc(COC(=O)[C@H](C)[C@@H]3CCc4c(C)cc(OC(C)=O)c(C)c4C3)nn2)cc(OC)c1OC . Reported Activity: Toxic

====

Species on record: Mus musculus
method: Cytotoxicity against Balb/c mouse B cells assessed as decrease in cell viability at 100 uM after 48 hrs by MTT assay
Assay type: toxicity, cell-based
quantity: Activity

Worked cases, Activity given:
CC(=O)Oc1cc(C)c2c(c1C)C[C@H]([C@@H](C)C(=O)OCc1cn(Cc3ccc(Br)cc3)nn1)CC2: Toxic
CC(=O)Oc1cc(C)c2c(c1C)C[C@H]([C@@H](C)C(=O)OCc1cn(-c3ccc4c(c3)OCO4)nn1)CC2: Non-Toxic
CC(=O)Oc1cc(C)c2c(c1C)C[C@H]([C@@H](C)C(=O)OCc1cn(-c3cc(I)ccc3C)nn1)CC2: Toxic
C#CCOC(=O)[C@H](C)[C@@H]1CCc2c(C)cc(OC(C)=O)c(C)c2C1: Non-Toxic

Below are some compounds; for each one, tell me its Activity.
1. CC(=O)Oc1cc(C)c2c(c1C)[C@@H]1OC(=O)[C@@H](C)[C@@H]1CC2
2. CCCCCn1cc(COC(=O)[C@H](C)[C@@H]2CCc3c(C)cc(OC(C)=O)c(C)c3C2)nn1
3. COc1ccc(-n2cc(COC(=O)[C@H](C)[C@@H]3CCc4c(C)cc(OC(C)=O)c(C)c4C3)nn2)cc1
4. CC(=O)Oc1cc(C)c2c(c1C)C[C@H]([C@@H](C)C(=O)OCc1cn(-c3ccc(Cl)c(Cl)c3)nn1)CC2
5. CC(=O)Oc1cc(C)c2c(c1C)C[C@H]([C@@H](C)C(=O)OCc1cn(-c3ccccc3F)nn1)CC2
6. CC(=O)Oc1cc(C)c2c(c1C)C[C@H]([C@@H](C)C(=O)OCc1cn(-c3cccnc3Cl)nn1)CC2

["Non-Toxic", "Toxic", "Toxic", "Toxic", "Non-Toxic", "Non-Toxic"]

Count: 2. Required value per item: Activity.
1. CC(=O)Oc1cc(C)c2c(c1C)C[C@H]([C@@H](C)C(=O)OCc1cn(-c3ccc(NC(=O)c4ccccc4)cc3)nn1)CC2
2. CC(=O)Oc1cc(C)c2c(c1C)C[C@H]([C@@H](C)C(=O)OCc1cn(-c3ccccc3CO)nn1)CC2

1: Non-Toxic; 2: Toxic
